Data origin: patent US20160257732A1

binders and their reported Neutralization IC50, H1-BS10
- Target Or Test System: HA of virus H1-BS10
- Experiment Description: cell-based or functional assay
Observable: Neutralization IC50, H1-BS10 (µg/mL)

Binder: Antibody 11 (antibody, V domains shown) VH: QVQLQQSGPGLVKPSQTLSLTCAISGDSVSSYNAVWNWIRQSPSRGLEWLGRTYYRSGWYNDYAESVKSRITINPDTSKNQFSLQLNSVTPEDTAVYYCARSGHITVFGVNVDAFDMWGQGTMVTVSS VL: DIQMTQSPSSLSASVGDRVTITCRTSQSLSSYTHWYQQKPGKAPKLLIYAASSRLSGVPSRFSGSGSGTDFTLTISSLQPEDFATYYCQQSRTFGQGTKVEIK
Endpoint Value: 1.15
//
Binder: Antibody 15 (antibody, V domains shown) VH: QVQLQQSGPGLVKPSQTLSLTCAISGDSVSSNNAVWNWIRQSPSRGLEWLGRTYYRSKWYNDYAESVKSRITINPDTSKNQFSLQLNSVTPEDTAVYYCARSGHITVFGVNVDAFDMWGQGTTVTVSS VL: DIQMTQSPSSLSASVGDRVTITCRTSQSLSSYTHWYQQKPGKAPKLLIYAASSRGSGVPSRFSGSGSGTDFTLTISSLQPEDFATYYCQQSRTFGQGTKVEIK
Endpoint Value: 1.89
//
Binder: Antibody 12 (antibody, V domains shown) VH: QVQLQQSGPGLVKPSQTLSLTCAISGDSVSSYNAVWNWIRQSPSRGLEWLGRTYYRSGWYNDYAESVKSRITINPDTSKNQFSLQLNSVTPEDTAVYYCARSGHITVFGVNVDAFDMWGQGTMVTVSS VL: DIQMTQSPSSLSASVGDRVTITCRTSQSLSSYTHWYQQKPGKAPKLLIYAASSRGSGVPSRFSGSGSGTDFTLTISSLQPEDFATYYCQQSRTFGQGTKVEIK
Endpoint Value: 1.25
